In this section we review reported abundance fitness values for a set of variants.
B1: WW domain-containing transcription regulator protein 1, residues 116 to 162; numbered along this chain, Q9GZV5 (parent)
chain: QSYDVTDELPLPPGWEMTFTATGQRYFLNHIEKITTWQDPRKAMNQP

- Variants of: B1
- protocol_summary: abundance fitness (aPCA) (normalised: wild type 0, dead -1); higher = more abundant; growth selection in yeast, the domain comes from the species named
- recorded_conditions: Homo sapiens

{"mutant_id": "W37M", "abundance fitness": -0.265}
{"mutant_id": "P10F", "abundance fitness": -0.342}
{"mutant_id": "T36I", "abundance fitness": -0.831}
{"mutant_id": "R41Q", "abundance fitness": -0.447}
{"mutant_id": "P12M", "abundance fitness": -0.862}
{"mutant_id": "Q46N", "abundance fitness": -0.067}
{"mutant_id": "M17L", "abundance fitness": -0.067}
{"mutant_id": "T18R", "abundance fitness": 0.094}
{"mutant_id": "P10T", "abundance fitness": -0.045}
{"mutant_id": "R41T", "abundance fitness": -0.4}
{"mutant_id": "L11R", "abundance fitness": -0.847}
{"mutant_id": "P13R", "abundance fitness": -0.082}
{"mutant_id": "M44I", "abundance fitness": -0.244}
{"mutant_id": "Q38G", "abundance fitness": -0.264}
{"mutant_id": "D7R", "abundance fitness": -0.166}
{"mutant_id": "E8N", "abundance fitness": -0.128}
{"mutant_id": "P40R", "abundance fitness": -0.999}
{"mutant_id": "P10G", "abundance fitness": -0.12}
{"mutant_id": "M17N", "abundance fitness": -0.582}
{"mutant_id": "Q1A", "abundance fitness": -0.519}
{"mutant_id": "D7Y", "abundance fitness": -0.268}
{"mutant_id": "I34A", "abundance fitness": -0.304}
